These data points were gathered from ChEMBL document CHEMBL3112546.

- Protocol: Antiproliferative activity against human BxPC3 cells assessed as cell growth at 10 uM after 72 hrs by CellTitre assay relative to control
- Type: functional
- Experimental parameters: BXPC-3, 72 h, read-out: Activity
Measured metric: growth at 10 µM (%)
Answers are plain numbers, in %.

Sample records with growth at 10 µM:
INSERT INTO measurements (compound, measured_metric, value) VALUES
  ('O=C1O[C@@H](c2ccccc2)[C@H](c2ccccc2)[C@H]1CN(Cc1ccccc1)C(=O)c1ccccc1 (racemic)', 'growth at 10 µM', 81),
  ('C=C1C(=O)O[C@@H]2[C@H]3O[C@]3(C)CC/C=C(\C)CC[C@@H]12', 'growth at 10 µM', 6),
  ('CCN(CC)C[C@H]1C(=O)O[C@@H](c2ccccc2)[C@@H]1c1ccccc1 (racemic)', 'growth at 10 µM', 0),
  ('C/C1=C\CC[C@@]2(C)O[C@@H]2[C@H]2OC(=O)[C@@H](CN(C)C)[C@@H]2CC1', 'growth at 10 µM', 7),
  ('C=C1C(=O)O[C@@H](c2ccccc2)[C@@H]1c1ccccc1 (racemic)', 'growth at 10 µM', 1),
  ('O=C1O[C@H](c2ccccc2)[C@H](c2ccccc2)[C@@H]1CN1CCOCC1 (racemic)', 'growth at 10 µM', 6);

Would you be so kind as to report growth at 10 µM for each listed record?
1. CCN(CC)C[C@@H]1C(=O)O[C@H](c2ccccc2)[C@@H]1c1ccccc1 (racemic)
2. O=C1O[C@@H](c2ccccc2)[C@H](c2ccccc2)[C@H]1CN(Cc1ccccc1)Cc1ccccc1 (racemic)

1: 1; 2: 50
